Catalogue of log10 Henry constant (atm·m³/mol) readings, one per entry.
MEASUREMENT_LABEL: log10 Henry constant (atm·m³/mol)

* CCCCC=O | -3.83
* CC(C)CO | -5.01
* CCCCCCC(C)O (stereo unspecified) | -3.91
* CCCCCCCCO | -4.61
* CCCCCC=O | -3.67
* Clc1ccccc1-c1ccccc1 | -3.13
* CCCN(CCC)c1c([N+](=O)[O-])cc(C(F)(F)F)cc1[N+](=O)[O-] | -3.99
* C=CC | -0.708
* Clc1ccc(Cl)c(-c2cc(Cl)c(Cl)c(Cl)c2Cl)c1 | -4.64
* Clc1cccc(Cl)c1-c1ccccc1 | -3.64
* Cc1ccc(C)cc1 | -2.16
* COC(=O)c1ccccc1S(=O)(=O)NC(=O)N(C)c1nc(C)nc(OC)n1 | -13
* Clc1cccc(-c2cc(Cl)c(Cl)c(Cl)c2Cl)c1Cl | -4.54
* FC(F)OC(Cl)C(F)(F)F (stereo unspecified) | -1.54
* Cc1cccc(C)c1N(Cn1cccn1)C(=O)CCl | -9.25
* c1ccncc1 | -4.96
* ClC(Cl)=C(c1ccc(Cl)cc1)c1ccc(Cl)cc1 | -4.38
* CCC(C)Cl (stereo unspecified) | -1.62
* CCCCCCCCCc1ccc(OP(=O)(Oc2ccccc2)Oc2ccccc2)cc1 | -7.85
* C1COCO1 | -4.61
* CCOCC | -2.91
* Brc1ccccc1 | -2.61
* C=CC(C)(C)O | -4.68
* O=C(Nc1ccc(F)cc1F)c1cccnc1Oc1cccc(C(F)(F)F)c1 | -6.49
* Clc1cc(Cl)cc(-c2ccc(Cl)c(Cl)c2)c1 | -4.05
* Cc1cccc(N)c1 | -5.78
* ClC=CCl | -2.39
* c1cc[nH]c1 | -4.74
* CC(=O)c1cccnc1 | -7.67
* COP(=O)(OC)O/C(C)=C/C(=O)N(C)C | -10.3
* CCC(CO)O[N+](=O)[O-] (stereo unspecified) | -6.78
* BrCCBr | -3.19
* Clc1cccc2ccccc12 | -3.45
* Clc1ccc(-c2c(Cl)ccc(Cl)c2Cl)cc1 | -3.85
* CS(C)=O | -8.82
* ClC(Cl)C(Cl)Cl | -3.44
* Clc1cc(Cl)c(Cl)c(-c2cc(Cl)c(Cl)cc2Cl)c1 | -4.6
* COc1ccc(O)c([N+](=O)[O-])c1 | -5.73
* Cc1cc(C)cc(C)c1 | -2.06
* NC1CCCCC1 | -5.38
* Clc1ccc(Cl)c(-c2ccccc2)c1 | -3.55
* CC(F)(F)Cl | -1.23
* Clc1cc(Cl)cc(Cl)c1 | -2.72
* ClC(Cl)(Cl)Cl | -1.56
* C1COCCO1 | -5.32
* FC(F)(F)C(F)(F)C(Cl)Cl | -0.299
* CCCC(=O)O | -6.27
* OCCO | -7.22
* CCC(C)O (stereo unspecified) | -5.04
* Clc1ccccc1 | -2.51
* OCC(F)(F)C(F)(F)F | -4.65
* CCCOP(=O)(OCCC)OCCC | -6.17
* CC(Cl)Cl | -2.25
* ClC(Cl)(Cl)C(Cl)(Cl)Cl | -2.41
* ClCC(Cl)Cl | -3.08
* CCc1ccc2ccccc2c1 | -3.27
* CCCCCCCCCCCCO | -4.65
* Clc1cc(Cl)c(Cl)c(-c2c(Cl)c(Cl)c(Cl)c(Cl)c2Cl)c1 | -4.85
* CCCCC | 0.0969
* COc1cccc(O)c1 | -7.24
* CCCCCOC(C)=O | -3.41
* OCc1ccccc1 | -6.47
* C[C@H](O)C(F)(F)F | -4.66
* Cc1cccc([N+](=O)[O-])c1O | -4.47
* CN1CCCCC1 | -4.46
* Oc1ccccc1Cl | -4.95
* CCOCCOC(C)=O | -5.49
* Cc1cccc(OP(=O)(Oc2cccc(C)c2)Oc2cccc(C)c2)c1 | -4.08
* CC1CCCC(O)C1 (stereo unspecified) | -5.44
* CCCCCCCI | -1.41
* O=C(O)C(Br)Br | -8.35
